Study System: cGMP-dependent protein kinase 1 (Homo sapiens) (UniProt Q13976);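 also: listed percent inhibition of PRKG1 is a mean value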
Sequence (Q13976 whole entry): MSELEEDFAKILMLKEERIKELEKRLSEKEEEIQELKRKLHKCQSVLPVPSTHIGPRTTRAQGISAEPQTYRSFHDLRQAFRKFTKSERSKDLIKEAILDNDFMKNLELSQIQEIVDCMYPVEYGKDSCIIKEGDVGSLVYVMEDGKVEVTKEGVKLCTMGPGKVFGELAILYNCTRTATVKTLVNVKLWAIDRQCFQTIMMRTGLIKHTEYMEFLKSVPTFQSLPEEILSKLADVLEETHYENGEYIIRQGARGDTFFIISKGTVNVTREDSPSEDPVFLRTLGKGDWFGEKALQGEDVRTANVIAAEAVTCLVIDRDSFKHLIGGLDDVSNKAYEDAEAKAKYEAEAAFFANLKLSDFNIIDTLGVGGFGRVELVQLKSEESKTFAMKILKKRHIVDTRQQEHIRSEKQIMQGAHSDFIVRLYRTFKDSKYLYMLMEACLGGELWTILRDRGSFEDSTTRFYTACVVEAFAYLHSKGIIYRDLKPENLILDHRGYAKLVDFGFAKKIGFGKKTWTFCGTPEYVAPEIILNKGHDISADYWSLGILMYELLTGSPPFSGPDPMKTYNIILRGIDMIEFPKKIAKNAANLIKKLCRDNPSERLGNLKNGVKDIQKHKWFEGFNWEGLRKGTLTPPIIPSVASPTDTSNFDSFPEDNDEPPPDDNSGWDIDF
Conditions: at 1 µM
Tag: rule met if measured inhibition is not below 2%, rule not met if it is.

Examples with answers:
C[C@@H](Oc1cc(-n2cnc3ccc(OCC4CCN(C)CC4)cc32)sc1C(N)=O)c1ccccc1Cl : rule met
CN(C)CCOc1ccc(-c2cc(-c3ccc4c(c3)CCC4=NO)c(-c3ccncc3)o2)cc1 : rule met
COc1ccc2cc(-c3c(-c4ccncc4)nc(-c4ccc([S+](C)[O-])cc4C)n3C)ccc2c1 (stereo not given) : rule not met

Consider the additional compound presented here.
Req: Dear colleague, could you confirm whether CCS(=O)(=O)c1ccc(OC)c(Nc2ncc(-c3ccccc3Cl)o2)c1 has inhibition at or above 2%?
Resp: rule met

Measured values drawn from ChEMBL document CHEMBL1961873 for this set.
